Test: Liver microsome stability test
Assay type: in vitro ADME
Settings: human liver microsomes 0.5 mg/mL, compound 1 μM, NADPH 1 mM, 60 minutes
readout.kind: CLint scaled at 1 μM (mL/min/kg)

CCc1c(N2CCN(C(=O)c3ncccc3O)CC2)c(=O)n2nc(N3CCOCC3)nc2n1CC(=O)Nc1ccc(C(F)(F)F)c2ccsc12 [Compound H9]
13
CCc1c(N2CCN(C(=O)c3ncnc(C)c3O)CC2)c(=O)n2nc(C3=CCOCC3)nc2n1CC(=O)Nc1ccc(Br)c2ccsc12 [Compound H15]
2.5

(I) CCc1c(N2CCN(C(=O)c3ncnc(C)c3O)CC2)c(=O)n2nc(C3=CCOCC3)nc2n1CC(=O)Nc1ccc(C(F)(F)F)c2sccc12 [Compound H13]
(II) CCc1c(N2CCN(C(=O)c3nccc(F)c3O)CC2)c(=O)n2nc(C3=CCOCC3)nc2n1CC(=O)Nc1ccc(C(F)(F)F)c2ccsc12 [Compound H20]
Task: Kindly identify which of I and II has the larger recorded CLint scaled at 1 μM value. Respond using the label that marks the chosen record.
Output: II
(II: 25.9 mL/min/kg, I: 7.9 mL/min/kg)

(1) CCc1c(N2CCN(C(=O)c3nccc(Cl)c3O)CC2)c(=O)n2nc(C3=CCOCC3)nc2n1CC(=O)Nc1ccc(C(F)(F)F)c2ccsc12 [Compound H19]
(2) CCc1c(N2CCN(C(=O)c3ncnc(C)c3O)CC2)c(=O)n2nc(C3=CCOCC3)nc2n1CC(=O)Nc1ccc(C(F)(F)F)c2scnc12 [Compound H21]
(3) CCc1c(N2CCN(C(=O)c3ncccc3O)CC2)c(=O)n2nc(C3=CCOCC3)nc2n1CC(=O)Nc1ccc(C(F)(F)F)c2ccsc12 [Compound H2]
Task: Rank entries according to their CLint scaled at 1 μM, from the largest number down. Answer format: the labels, ordered as requested.
Output: 3, 2, 1
(3: 19.7 mL/min/kg, 2: 6 mL/min/kg, 1: 0.73 mL/min/kg)

###

Assay: Pharmacokinetic evaluation in mice
Type: in vivo, CD1 female mice
Details: female, CD1, mouse, plasma, PO 10 mg/kg, read-out: AUC0-24
Protocol: CD1 female mice were used as test animals and the drug was administered orally/intravenously (oral dosage: 10 mg/kg, intravenous dosage: 2 mg/kg). Assay protocol: The oral group consisted of 3 mice per group (vehicle: 10% Hβ-CD-pH7.4), and the intravenous group consisted of 3 mice per group. […] The blood concentrations in plasma after oral and intravenous administration of mice were determined by LC/MS/MS, respectively.
readout.kind: AUC(0-t) (ng·h/mL)

CCc1c(N2CCN(C(=O)c3ncnc(C)c3O)CC2)c(=O)n2nc(C3=CCOCC3)nc2n1CC(=O)Nc1ccc(Br)c2ccsc12
1050
CCc1c(N2CCN(C(=O)c3ncnc(C)c3O)CC2)c(=O)n2nc(C3=CCOCC3)nc2n1CC(=O)Nc1ccc(C(F)(F)F)c2sccc12
943

###

Test: Pharmacokinetic evaluation in mice
Format: in vivo, CD1 female mice
Conditions: PO 10 mg/kg vs IV 2 mg/kg
readout.kind: F (%)

CCc1c(N2CCN(C(=O)c3ncnc(C)c3O)CC2)c(=O)n2nc(C3=CCOCC3)nc2n1CC(=O)Nc1ccc(C(F)(F)F)c2sccc12 [Compound H13]
24
CCc1c(N2CCN(C(=O)c3ncnc(C)c3O)CC2)c(=O)n2nc(C3=CCOCC3)nc2n1CC(=O)Nc1ccc(C(F)(F)F)c2ccsc12 [Compound H1]
79

(I) CCc1c(N2CCN(C(=O)c3ncccc3O)CC2)c(=O)n2nc(-c3cccnc3)nc2n1CC(=O)Nc1ccc(C(F)(F)F)cc1C [Compound A1, reference compound]
(II) CCc1c(N2CCN(C(=O)c3ncnc(C)c3O)CC2)c(=O)n2nc(C3=CCOCC3)nc2n1CC(=O)Nc1ccc(Br)c2ccsc12 [Compound H15]
Task: // which entry reports the smaller F, I or II ? Respond using the label that marks the chosen record.
Output: I

Reference for the values: patent US20260216197A1
